- Tested on: E.coli BW25113 ∆acrA∆bamB (OXA-48)
- Assay type: cell-based
- particulars: compound at 64 μg/mL
- Description: The recombinant plasmid containing the Pbla promoter and OXA-48 constructed above was then transformed into BW25113, BW25113 ∆acrA, BW25113 ∆bamB, and BW25113 ∆acrA∆bamB. The above strains were used to study the minimum inhibitory concentration (MIC). […] The susceptibility to piperacillin/imipenem combined with the compound at a concentration of 16 or 64 μg/mL was determined. […]
metric-name: reduction in the piperacillin MIC
Include the unit right after the number.

• O=c1cc(-c2ccc(O)c(O)c2)oc2cc(O)ccc12 [3′,4′,7-trihydroxyflavone] = 8 fold
• O=c1c(O)c(-c2ccc(O)c(O)c2)oc2cc(O)ccc12 = 2 fold
• O=c1cc(-c2ccc(O)c(O)c2)oc2cc(O)cc(O)c12 = 4 fold

Okay, next one:
Entry `O=c1c(O)c(-c2ccc(O)c(O)c2)oc2cc(O)cc(O)c12` — recorded reduction in the piperacillin MIC = 8 fold

###

Quick list: IC50 per entry.
- study-target: OXA-48 (Klebsiella pneumoniae)
- Construct: made in house; host or cells: E. coli BL21(DE3)
- protocol: Enzyme inhibition assay against purified OXA-48 with nitrocefin as substrate
- Type: biochemical
- particulars: purified OXA-48 12 nM, nitrocefin 200 μM, 0.1 M phosphate buffer pH 7.0, 50 mM NaHCO3, 25°C; read-out: IC50 against OXA-48
Number in nM, nothing else.

• O=c1c(O)c(-c2ccc(O)c(O)c2)oc2cc(O)cc(O)c12 = 1470
• O=c1c(O)c(-c2ccc(O)c(O)c2)oc2cc(O)ccc12 = 470
• O=c1c(O[C@@H]2O[C@H](CO)[C@@H](O)[C@H](O)[C@H]2O)c(-c2ccc(O)c(O)c2)oc2cc(O)cc(O)c12 = 11500

Okay, next one:
Entry `O=c1cc(-c2ccc(O)c(O)c2)oc2cc(O)cc(O)c12` — recorded IC50 = 550

###

- study-target: OXA-48 (Klebsiella pneumoniae)
- Construct: made in house; host or cells: E. coli BL21(DE3)
- protocol: Enzyme inhibition assay against purified OXA-48 with nitrocefin as substrate
- Type: biochemical
metric-name: IC50 (µM)
Number in µM, nothing else.

The cases that follow already have their IC50 on record.
- O=c1cc(-c2ccc(O)c(O)c2)oc2cc(O)ccc12 [3′,4′,7-trihydroxyflavone]: 1.89
- O=C1C[C@@H](c2ccc(O)cc2)Oc2cc(O)cc(O)c21: 68.1
- O=c1c(O)c(-c2ccccc2)oc2cc(O)cc(O)c12: 216
- O=c1c(O)c(-c2ccc(O)cc2)oc2cc(O)cc(O)c12: 4.54
- O=c1cc(-c2ccc(O)cc2)oc2cc(O)cc(O)c12: 3.64
- O=c1cc(-c2ccccc2)oc2cc(O)cc(O)c12: 108

Okay, next one:
Entry O=C1c2c(O)cc(O)cc2OC(c2ccc(O)c(O)c2)C1O (stereo not shown) — recorded IC50 = 3.22

###

Quick list: inhibition at 50 µM per entry.
- study-target: OXA-48 (Klebsiella pneumoniae)
- Construct: made in house; host or cells: E. coli BL21(DE3)
- protocol: Enzyme inhibition assay against purified OXA-48 with nitrocefin as substrate
- Type: biochemical
- particulars: read-out: percent inhibition against OXA-48, at 50 μM compound; nitrocefin substrate
Number in %, nothing else.

• O=C(O)[C@H]1O[C@@H](Oc2cc3oc(-c4ccccc4)cc(=O)c3c(O)c2O)[C@H](O)[C@@H](O)[C@@H]1O = 25

Okay, next one:
Entry `COc1ccc(-c2cc(=O)c3c(OC)c(OC)c(OC)c(OC)c3o2)cc1` — recorded inhibition at 50 µM = 7

###

- study-target: OXA-48 (Klebsiella pneumoniae, UniProt Q6XEC0)
- Construct: made in house; host or cells: E. coli BL21(DE3)
- Sequence (Q6XEC0 23-265 limits assumed): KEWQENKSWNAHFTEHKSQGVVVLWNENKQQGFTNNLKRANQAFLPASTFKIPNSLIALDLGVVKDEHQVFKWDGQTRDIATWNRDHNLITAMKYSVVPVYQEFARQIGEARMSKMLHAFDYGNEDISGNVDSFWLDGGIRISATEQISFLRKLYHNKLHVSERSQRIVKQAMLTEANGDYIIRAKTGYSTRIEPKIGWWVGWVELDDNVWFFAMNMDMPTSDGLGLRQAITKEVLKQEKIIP
- protocol: Enzyme inhibition assay against purified OXA-48 with nitrocefin as substrate
- Type: biochemical
- particulars: at 50 μM compound; nitrocefin substrate; 50 µM
metric-name: percent inhibition against OXA-48 (%)
Number in %, nothing else.

• O=c1cc(-c2ccccc2)oc2cc(O)cc(O)c12 = 8

Entry `O=c1cc(-c2ccc(O)c(O)c2)oc2cc(O)cc(O)c12` — recorded percent inhibition against OXA-48 = 81

Entry `O=c1c(O)c(-c2ccc(O)c(O)c2)oc2cc(O)cc(O)c12` — recorded percent inhibition against OXA-48 = 87

Entry `COc1ccc(-c2oc3c(CC=C(C)C)c(O[C@@H]4O[C@H](CO)[C@@H](O)[C@H](O)[C@H]4O)cc(O)c3c(=O)c2O[C@@H]2O[C@@H](C)[C@H](O)[C@@H](O)[C@H]2O)cc1` — recorded percent inhibition against OXA-48 = 0.3

Entry `O=c1c(O)c(-c2ccccc2)oc2cc(O)cc(O)c12` — recorded percent inhibition against OXA-48 = 3

Entry `O=c1c(O)c(-c2ccc(O)c(O)c2)oc2cc(O)ccc12` — recorded percent inhibition against OXA-48 = 90

###

- study-target: OXA-48 (Klebsiella pneumoniae)
- Construct: made in house; host or cells: E. coli BL21(DE3)
- protocol: Enzyme inhibition assay against purified OXA-48 with nitrocefin as substrate
- Format: biochemical
- particulars: at 50 μM compound; nitrocefin substrate; 50 µM
metric-name: percent inhibition against OXA-48 (%)
Number in %, nothing else.

* O=c1c(O[C@@H]2O[C@H](CO)[C@@H](O)[C@H](O)[C@H]2O)c(-c2ccc(O)c(O)c2)oc2cc(O)cc(O)c12 | 61
* O=c1c(O)c(-c2ccc(O)cc2)oc2cc(O)cc(O)c12 | 76
* O=C1c2c(O)cc(O)cc2OC(c2ccc(O)c(O)c2)C1O (stereo not drawn) | 76
* COc1ccc(-c2cc(=O)c3c(O)cc(O[C@@H]4O[C@H](CO[C@@H]5O[C@@H](C)[C@H](O)[C@@H](O)[C@H]5O)[C@@H](O)[C@H](O)[C@H]4O)cc3o2)cc1O | 11

Okay, next one:
Entry `O=c1cc(-c2ccc(O)cc2)oc2cc(O)cc(O)c12` — recorded percent inhibition against OXA-48 = 77
